- Tested on: SNB-19
- assay info: NCI tumour cell line growth inhibition, 48 h
Active and inactive are the calls of the source. No stated cut-off is given here; in the data, active = GI50 up to about 1.1 µM and inactive = higher.

{"compound": "Cc1ccc(CCCCCOc2ccc(C3=NCCO3)cc2)s1", "experimental target": "SNB-19", "GI50": "> 100 µM (inactive)"}
{"compound": "Cc1ccc(S(=O)OC2c3ccccc3Cc3ccccc32)cc1 (stereo unspecified)", "experimental target": "SNB-19", "GI50": "23.8 µM (inactive)"}
{"compound": "CC(C)(C)OC(=O)NCCC(N)=S", "experimental target": "SNB-19", "GI50": "> 100 µM (inactive)"}
{"compound": "O=S(=O)(NC1OCCCC1I)c1ccccc1 (stereo unspecified)", "experimental target": "SNB-19", "GI50": "> 100 µM (inactive)"}
{"compound": "Cc1nc(O)nc(N/N=C/c2ccc(Cl)cc2)c1C(=O)NC(C)(CO)CO", "experimental target": "SNB-19", "GI50": "> 100 µM (inactive)"}
{"compound": "OCC1OC(c2nc(C3=NCCCN3)cs2)C(O)C1O (stereo unspecified)", "experimental target": "SNB-19", "GI50": "> 100 µM (inactive)"}

Recorded values, source ChEMBL document CHEMBL1201862.
